Data provenance is the NIST ThermoML archive (doi:10.1021/je800356x).

Documented molar heat capacity at constant pressure across a set of compounds
Experimental Details: molar heat capacity at constant pressure
Recorded Conditions: 327.65 K; 101.33 kPa; Liquid; Small sample (50 mg) DSC
# output: bare number, implied unit J/K/mol

Request the reported molar heat capacity at constant pressure associated with OCCCCCCO [1,6-hexanediol]
292.12

Using the record for OCCCCCCCO [1,7-heptanediol] , report its molar heat capacity at constant pressure.
325.71

Dear colleague, I am looking for the recorded molar heat capacity at constant pressure of the following compound: OCCCO [propan-1,3-diol]
190.12

Consider the compound OCCCCCO [1,5-pentanediol] and give its measured molar heat capacity at constant pressure.
254.7

molar heat capacity at constant pressure for OCCCCO [1,4-butanediol] ?
220.7

// lookup molar heat capacity at constant pressure for OCCCCCCCCCO [1,9-nonanediol]
401.73

Can you share its molar heat capacity at constant pressure? I mean this compound: OCCO [1,2-ethanediol]
159.11

----------
Recorded molar heat capacity at constant pressure, one value per entry.
Experimental Details: molar heat capacity at constant pressure
Recorded Conditions: 323.15 K; 101.33 kPa; Liquid; Small sample (50 mg) DSC
Give your result in J/K/mol as a bare value.

Some entries whose results are on file:
OCCCO [propan-1,3-diol]
187.91
OCCCCO [1,4-butanediol]
217.91
OCCCCCO [1,5-pentanediol]
251.11
OCCCCCCCCCO [1,9-nonanediol]
395.39
OCCCCCCCO [1,7-heptanediol]
320.98

Can you share its molar heat capacity at constant pressure? I mean this compound: OCCO [1,2-ethanediol]
157.67

Give its molar heat capacity at constant pressure value. Item: OCCCCCCO [1,6-hexanediol]
287.42

----------
Listed below: molar heat capacity at constant pressure values for each entry.
Experimental Details: molar heat capacity at constant pressure
Recorded Conditions: 293.15 K; 101.33 kPa; Liquid; Small sample (50 mg) DSC
Give your result in J/K/mol as a bare value.

OCCCO [propan-1,3-diol]
173.4

# input compound: OCCCCCO [1,5-pentanediol] ; wanted: its molar heat capacity at constant pressure
229.04

Requested read-out: molar heat capacity at constant pressure. Entry: OCCCCCCCO [1,7-heptanediol]
292.06

Fill in the blank: the reported molar heat capacity at constant pressure of OCCCCO [1,4-butanediol] is ____.
200.51

# lookup: molar heat capacity at constant pressure of OCCO [1,2-ethanediol]
148.1

----------
Experimental Details: molar heat capacity at constant pressure
Recorded Conditions: 330.65 K; 101.33 kPa; Liquid; Small sample (50 mg) DSC
Consider the following molecules and their measured molar heat capacity at constant pressure readings.
// return numeric value only (unit: J/K/mol, not printed)

Consider the reported molar heat capacity at constant pressure for these molecules:
OCCCCCCO [1,6-hexanediol]
295.22
OCCCCCCCO [1,7-heptanediol]
328
OCCCO [propan-1,3-diol]
191.61
OCCO [1,2-ethanediol]
160.08
OCCCCCO [1,5-pentanediol]
257.14
OCCCCCCCCCO [1,9-nonanediol]
405.94

# evaluate next
Name the reported molar heat capacity at constant pressure value associated with the molecule OCCCCO [1,4-butanediol]
222.58

----------
In this section we review reported molar heat capacity at constant pressure values for a set of compounds.
Experimental Details: molar heat capacity at constant pressure
Recorded Conditions: 338.15 K; 101.33 kPa; Liquid; Small sample (50 mg) DSC
± gives the expanded uncertainty stated by the source.
The reply must contain the numeric value and, after it, the unit.

Below: 2 compounds and their reported molar heat capacity at constant pressure.
OCCCO [propan-1,3-diol]
195.34 ± 3 J/K/mol
OCCCCCCCCO [1,8-octanediol]
377.03 ± 5.8 J/K/mol

# query: molar heat capacity at constant pressure of entry OCCCCCCCCCO [1,9-nonanediol]
416.38 ± 6.5 J/K/mol

Look at this compound and give its reported molar heat capacity at constant pressure. OCCCCCCO [1,6-hexanediol]
302.88 ± 4.7 J/K/mol

Consider the compound shown here: OCCCCCO [1,5-pentanediol] What is its recorded molar heat capacity at constant pressure?
263.38 ± 4.1 J/K/mol

What does the record list as molar heat capacity at constant pressure for OCCO [1,2-ethanediol] ?
162.49 ± 2.5 J/K/mol

What molar heat capacity at constant pressure value was documented for this compound, OCCCCCCCO [1,7-heptanediol] ?
337.13 ± 5.2 J/K/mol

molar heat capacity at constant pressure lookup needed for OCCCCO [1,4-butanediol] , thanks.
227.38 ± 3.5 J/K/mol

----------
molar heat capacity at constant pressure values, listed per item
Experimental Details: molar heat capacity at constant pressure
Recorded Conditions: 299.15 K; 101.33 kPa; Liquid; Small sample (50 mg) DSC
Numbers after ± are expanded uncertainties.
Kindly format the answer as number then unit.

These recorded examples may help you get a feel for the data.
OCCCCO [1,4-butanediol]
203.82 ± 3.2 J/K/mol
OCCO [1,2-ethanediol]
150.01 ± 2.3 J/K/mol
OCCCO [propan-1,3-diol]
176.26 ± 2.7 J/K/mol
OCCCCCCCO [1,7-heptanediol]
297.48 ± 4.6 J/K/mol

# evaluate next
What measured molar heat capacity at constant pressure goes with OCCCCCO [1,5-pentanediol] ?
233.19 ± 3.6 J/K/mol

----------
molar heat capacity at constant pressure listing for selected molecules.
Experimental Details: molar heat capacity at constant pressure
Recorded Conditions: 333.65 K; 101.33 kPa; Liquid; Small sample (50 mg) DSC
± gives the expanded uncertainty stated by the source.
Please state the value followed by its unit.

Here are 6 molecules together with their reported answers.
OCCO [1,2-ethanediol]
161.04 ± 2.5 J/K/mol
OCCCCO [1,4-butanediol]
224.49 ± 3.5 J/K/mol
OCCCCCCO [1,6-hexanediol]
298.3 ± 4.6 J/K/mol
OCCCCCCCCO [1,8-octanediol]
371.35 ± 5.8 J/K/mol
OCCCCCCCCCO [1,9-nonanediol]
410.12 ± 6.3 J/K/mol
OCCCCCCCO [1,7-heptanediol]
332.17 ± 5.2 J/K/mol

Form field: reported molar heat capacity at constant pressure of OCCCCCO [1,5-pentanediol]
259.61 ± 4 J/K/mol

Query (molecule): OCCCO [propan-1,3-diol] ; field requested: molar heat capacity at constant pressure
193.1 ± 3 J/K/mol

----------
Experimental Details: molar heat capacity at constant pressure
Recorded Conditions: 296.15 K; 101.33 kPa; Liquid; Small sample (50 mg) DSC
Field: label. Allowed values: fulfilled (molar heat capacity at constant pressure < 200 J/K/mol) or not fulfilled (molar heat capacity at constant pressure >= 200 J/K/mol).

OCCCCCCCO
not fulfilled

Determine whether this molecule shows molar heat capacity at constant pressure lower than 200 J/K/mol (ties excluded): OCCCO
fulfilled

Confirm or reject: molar heat capacity at constant pressure of OCCO lies strictly below 200 J/K/mol
fulfilled

Check if molar heat capacity at constant pressure falls below 200 J/K/mol for OCCCCCO .
not fulfilled

----------
Experimental Details: molar heat capacity at constant pressure
Recorded Conditions: 318.65 K; 101.33 kPa; Liquid; Small sample (50 mg) DSC
Measured Endpoint: molar heat capacity at constant pressure (J/K/mol)
Numbers only here, please. The scale is J/K/mol.

See these solved cases before continuing.
OCCCCCCCCCO
389.02
OCCCO
185.7
OCCCCCCCO
316.35

Entry under review: OCCCCO . Reported molar heat capacity at constant pressure?
215.17

What molar heat capacity at constant pressure value was documented for this compound, OCCO ?
156.23

----------
Experimental Details: molar heat capacity at constant pressure
Recorded Conditions: 324.65 K; 101.33 kPa; Liquid; Small sample (50 mg) DSC
Entry flag: condition met if molar heat capacity at constant pressure reaches 300 J/K/mol; condition not met if it does not.

Reference set, count: 5
OCCCO [propan-1,3-diol]
condition not met
OCCCCCCCO [1,7-heptanediol]
condition met
OCCCCCCO [1,6-hexanediol]
condition not met
OCCCCCCCCCO [1,9-nonanediol]
condition met
OCCCCO [1,4-butanediol]
condition not met

Now consider the entry below.
Hello, I need to know if OCCO [1,2-ethanediol] has measured molar heat capacity at constant pressure not below 300 J/K/mol. Thanks!
condition not met

----------
Entries and their molar heat capacity at constant pressure values follow.
Experimental Details: molar heat capacity at constant pressure
Recorded Conditions: 320.15 K; 101.33 kPa; Liquid; Small sample (50 mg) DSC
Quick reminder: number only, in J/K/mol, skip the unit.

OCCCCCCCCCO
391.15

Form field: reported molar heat capacity at constant pressure of OCCO
156.71

Any idea what its molar heat capacity at constant pressure is? The compound is OCCCCCCO
284.25

----------
Experimental Details: molar heat capacity at constant pressure
Recorded Conditions: 303.65 K; 101.33 kPa; Liquid; Small sample (50 mg) DSC
Measured Endpoint: molar heat capacity at constant pressure (J/K/mol)
Your answer is read as J/K/mol, so omit the unit and give the number.

Example entries begin here.
OCCCO
178.42
OCCCCO
206.36
OCCCCCO
236.39

# get_value(readout='molar heat capacity at constant pressure', item= OCCCCCCCO )
301.67
